Answer each item with its documented MIC Enterococcus faecalis (GC 4554).
tested on: Enterococcus sp.; test: in vitro antibacterial evaluation, MIC by broth dilution; type: cell-based; conditions: Enterococcus faecalis (GC 4554); broth dilution, 18 hours at 35° C.
Just the number please, in µg/mL, no unit attached.

### Prompt Given CCCCOC(=O)CCC1OCC2OC(OC3C(CO)OC(Oc4ccc(CC5NC(=O)C(C(C)c6ccccc6)NC(=O)CNC(=O)C(CO)NC(=O)C(C(O)C6CNC(=N)N6C6OC(CO)C(O)C(O)C6O)NC(=O)C(C(O)C6CNC(=N)N6)NC5=O)cc4)C(O)C3O)C(O)C(O)C2O1 (centres unmarked) , state its recorded MIC Enterococcus faecalis (GC 4554).
### Response 4

### Prompt Given Cc1cccc(C2OCC3OC(OC4C(CO)OC(Oc5ccc(CC6NC(=O)C(C(C)c7ccccc7)NC(=O)CNC(=O)C(CO)NC(=O)C(C(O)C7CNC(=N)N7C7OC(CO)C(O)C(O)C7O)NC(=O)C(C(O)C7CNC(=N)N7)NC6=O)cc5)C(O)C4O)C(O)C(O)C3O2)c1 (centres unmarked) , state its recorded MIC Enterococcus faecalis (GC 4554).
### Response 2

* * *

System: Enterococcus sp.
Assay: in vitro antibacterial evaluation, MIC by broth dilution
Assay type: cell-based
Details: Enterococcus faecalis (GC 6189); broth dilution, 18 hours at 35° C.
Text: Methods for in vitro Antibacterial Evaluation (Table 1) […]
Numbered stars: 1 amine (or outer) side, 2 acyl side, 3 side chain; on linkers, the order of the positions; unused ones are H or OH. Square brackets hold non-standard residues; d marks the D form. Peptide text beside a SMILES is read from it. X5 = N=C1NCC(C(O)[C@@H](N[*:1])C(=O)[*:2])N1; X4 = N=C1NCC(C(O)[C@H](N[*:1])C(=O)[*:2])N1; Cha = N[C@@H](CC1CCCCC1)C(=O)O; dCha = N[C@H](CC1CCCCC1)C(=O)O
Answer each item with its documented MIC Enterococcus faecalis (GC 6189).
Just the number please, in µg/mL, no unit attached.

### Prompt Given CC(c1ccccc1)C1NC(=O)CNC(=O)C(CO)NC(=O)C(C(O)C2CNC(=N)N2C2OC(CO)C(O)C(O)C2O)NC(=O)C(C(O)C2CNC(=N)N2)NC(=O)C(Cc2ccc(OC3OC(CO)C(OC4OC5COC(CC6CCCCC6)OC5C(O)C4O)C(O)C3O)cc2)NC1=O (stereo not drawn) [Example 122] , state its recorded MIC Enterococcus faecalis (GC 6189).
### Response 2

### Prompt Given Cc1cccc(C2OCC3OC(OC4C(CO)OC(Oc5ccc(CC6NC(=O)C(C(C)c7ccccc7)NC(=O)CNC(=O)C(CO)NC(=O)C(C(O)C7CNC(=N)N7C7OC(CO)C(O)C(O)C7O)NC(=O)C(C(O)C7CNC(=N)N7)NC6=O)cc5)C(O)C4O)C(O)C(O)C3O2)c1 (stereo not drawn) [Example 135] , state its recorded MIC Enterococcus faecalis (GC 6189).
### Response 2

### Prompt Given COc1cccc(C2OC3C(OC4C(CO)OC(Oc5ccc(CC6NC(=O)C(C(C)c7ccccc7)NC(=O)CNC(=O)C(CO)NC(=O)C(C(O)C7CNC(=N)N7C7OC(CO)C(O)C(O)C7O)NC(=O)C(C(O)C7CNC(=N)N7)NC6=O)cc5)C(O)C4O)OC(CO)C(O)C3O2)c1 (single isomer, unassigned) [Example 137b] , state its recorded MIC Enterococcus faecalis (GC 6189).
### Response 32

### Prompt Given CC(c1ccccc1)C1NC(=O)CNC(=O)C(CO)NC(=O)C(C(O)C2CN(Cc3ccccc3)C(=NCc3ccccc3)N2C2OC(CO)C(O)C(O)C2O)NC(=O)C(C(O)C2CN(Cc3ccccc3)C(=NCc3ccccc3)N2Cc2ccccc2)NC(=O)C(Cc2ccc(OC3OC(CO)C(OC4OC5COC6(OC5C(O)C4O)C4CC5CC(C4)CC6C5)C(O)C3O)cc2)NC1=O (stereo not drawn) [Example 79] , state its recorded MIC Enterococcus faecalis (GC 6189).
### Response 8

### Prompt Given N=C1NCC(C(O)[C@@H]2NC(=O)[C@@H](CC3CCCCC3)NC(=O)[C@H](CC3CCCCC3)NC(=O)CNC(=O)[C@H](CO)NC(=O)[C@@H](C(O)C3CNC(=N)N3)NC2=O)N1 (stereo partly drawn) [Example 58] (cyclo([Cha][dCha][X4][X5]SG)) , state its recorded MIC Enterococcus faecalis (GC 6189).
### Response 64

### Prompt Given CC(c1ccccc1)C1NC(=O)CNC(=O)C(CO)NC(=O)C(C(O)C2CNC(=N)N2C2OC(CO)C(O)C(O)C2O)NC(=O)C(C(O)C2CNC(=N)N2)NC(=O)C(Cc2ccc(OC3OC(CO)C(OC4OC(COC(=O)NCc5ccccc5)C(O)C(O)C4O)C(O)C3O)cc2)NC1=O (stereo not drawn) [Example 257b] , state its recorded MIC Enterococcus faecalis (GC 6189).
### Response 0.5

### Prompt Given CC(c1ccccc1)C1NC(=O)CNC(=O)C(CO)NC(=O)C(C(O)C2CNC(=N)N2C2OC(CO)C(O)C(O)C2O)NC(=O)C(C(O)C2CNC(=N)N2)NC(=O)C(Cc2ccc(OC3OC(CO)C(OC4OC5COC(c6ccsc6)OC5C(O)C4O)C(O)C3O)cc2)NC1=O (stereo not drawn) [Example 133] , state its recorded MIC Enterococcus faecalis (GC 6189).
### Response 4
